Assay: Bio-availability: blood plasma level after injection of calves
Assay type: in vivo
Conditions: bovine, plasma; calves, injection, 1 mg/kg; read-out: maximum concentration in the blood (plasma)
readout label: Cmax

## Task Sample O=C(NC(=O)c1c(F)cccc1F)Nc1ccc(Cl)c(Oc2ncc(C(F)(F)F)cc2Cl)c1 [(A)] — what was its Cmax?
## Result 7 to 10 ng/mL

----------
Assay: Bio-availability: blood plasma level after injection of calves
Assay type: in vivo
Details: bovine, plasma, 1 mg/kg, day 1, calf 3, 1 mg/kg injection
readout label: concentration at 24 h (ng/mL)
The reply should be a number in ng/mL, with the unit left off.

## Task Sample `Nc1ccc(F)c(C(=O)NC(=O)Nc2ccc(Cl)c(Oc3ncc(C(F)(F)F)cc3Cl)c2)c1F` — what was its concentration at 24 h?
## Result 126
